# method-notes: Cmax in Sprague-Dawley rat at 10 mg/kg, po administered via gavage by LC-MS/MS analysis
# Type: ADME, organism-based
# Parameters: dose 10 mg/kg, route oral
# condition-label: in vivo
measurement-type: Cmax (µg/mL)
Unit µg/mL implied. Number only.

Task item: Which Cmax is reported for this compound? `Cl.O=C(NC[C@H](O)CN1CCc2ccccc2C1)c1ccc2c(c1)CCN(C(=O)c1ccc(Br)cc1)C2`
Reply: 0.032

Task item: For `CN(C)c1ccc(C(=O)N2CCc3cc(C(=O)NC[C@H](O)CN4CCc5ccccc5C4)ccc3C2)cc1.Cl` , what is its reported Cmax?
Reply: 0.0143

Task item: Param item = `COc1ccc(C(=O)N2CCc3cc(C(=O)NC[C@H](O)CN4CCc5ccccc5C4)ccc3C2)cc1.Cl` ; retrieve measured Cmax.
Reply: 0.102
